- Tested on: HT-29
- methodDescription: NCI tumour cell line growth inhibition, 48 h
Activity calls are given as the source filed them. Cut-off read from the data, not from the text of the source: active = GI50 up to about 1.1 µM and inactive = higher.
Catalogue of GI50 values

-- ask What value of measured GI50 is listed for C[N+]1(Cc2ccc(Cl)c(Cl)c2)CCCC1C1CCCN(Cc2ccc(Cl)c(Cl)c2)C1 (stereo not given) ?
-- reply > 100 µM (inactive)

-- ask Then O=C(/C=C/c1cccs1)c1ccc(C(=O)/C=C/c2cccs2)cc1 ?
-- reply > 100 µM (inactive)

-- ask Then O=C1Nc2ccccc2/C1=N/Nc1ccc([N+](=O)[O-])cc1 ?
-- reply 61.8 µM (inactive)

-- ask Then CC1(C)CC(=O)C2=C(C1)c1c(ccc3ccccc13)NC2c1cn(Cc2ccc(Cl)cc2)c2ccccc12 (stereo not given) ?
-- reply > 100 µM (inactive)

* * *

Catalogue of GI50 values
- System: SNB-75
- methodDescription: NCI tumour cell line growth inhibition, 48 h
Activity calls are given as the source filed them. No stated cut-off is given here; in the data, active = GI50 up to about 1.1 µM and inactive = higher.

Below, each entry is followed by its recorded GI50 result.
compound	targetEntity	GI50
COc1ccc(CCn2cnc3ccccc32)cc1	SNB-75	> 100 µM (inactive)
Cc1cc(=O)oc2cc(OC(=O)Nc3ccccc3)ccc12	SNB-75	> 100 µM (inactive)
O=C1Nc2ccccc2SC1=C(C(=O)c1ccccc1)C(=O)c1ccccc1	SNB-75	51.5 µM (inactive)

-- ask What value of measured GI50 is listed for N#CN1CCC2CC(=O)CCC2C1 (configuration not stated) ?
-- reply > 100 µM (inactive)

-- ask Then CC1=CCC2(C#N)CCC1C2O (configuration not stated) ?
-- reply > 100 µM (inactive)

-- ask Then N#CC(Nc1cccc(C(F)(F)F)c1)c1ccccc1C(F)(F)F (configuration not stated) ?
-- reply 18.3 µM (inactive)

-- ask Then CC1(C)CCCOc2cccc(c2)OCCCC(C)(C)C1=O ?
-- reply 30.8 µM (inactive)

-- ask Then Nc1nc(N)c(/N=N/c2ccc(C(=O)O)c(O)c2)c(N)n1 ?
-- reply > 100 µM (inactive)

-- ask Then Cc1cn2c(=O)c3ccccc3nc2s1 ?
-- reply 92.3 µM (inactive)

* * *

- System: LOX IMVI
- methodDescription: NCI tumour cell line growth inhibition, 48 h
The source made the active and inactive calls. No stated cut-off is given here; in the data, active = GI50 up to about 1.1 µM and inactive = higher.
Catalogue of GI50 values

compound	GI50
C[N+]1(Cc2ccc(Cl)c(Cl)c2)CCCC1C1CCCN(Cc2ccc(Cl)c(Cl)c2)C1 (stereo unspecified)	> 100 µM (inactive)

-- ask What value of measured GI50 is listed for Cn1nnc2c(C(N)=S)ncn2c1=O ?
-- reply > 100 µM (inactive)

-- ask Then C#CCN(N=O)C(=O)NC(CCCCNC(=O)OCc1ccccc1)C(=O)OCc1ccccc1 (stereo unspecified) ?
-- reply 25.5 µM (inactive)

-- ask Then N=C(N)N/N=C\c1c(-c2ccccc2)nc2sccn12 ?
-- reply 16.3 µM (inactive)

-- ask Then O=C(O)/C=C/C(=O)Nc1nc[nH]n1 ?
-- reply > 100 µM (inactive)

-- ask Then C/C(=N/CC(=O)O)c1ccccc1 ?
-- reply > 100 µM (inactive)

* * *

- Tested on: MDA-N
- methodDescription: NCI tumour cell line growth inhibition, 48 h
The source made the active and inactive calls. No stated cut-off is given here; in the data, active = GI50 up to about 1.1 µM and inactive = higher.
Choose the fitting class; nothing outside active, inactive is accepted.

Look over these answered cases.
molecule	targetEntity	qualitativeLabel
O=C(NCCCCCCNC(=O)c1cccc2ccccc12)Nc1cccc2ccccc12	MDA-N	inactive
COc1ccc2c(c1)[n+]([O-])c(/C(C)=N/NC(N)=S)c(C)[n+]2[O-]	MDA-N	inactive
O=C(O)Cn1ccnc1[N+](=O)[O-]	MDA-N	inactive
O=S1(=O)NN=C(NCc2ccc(F)cc2)c2ccccc21	MDA-N	inactive
C#CCCCC(=C)C[C@H](OCc1ccccc1)[C@H]1OC(=O)[C@@H]1C	MDA-N	inactive

-- ask How was O=C(NCCCc1cn[nH]c(=O)n1)c1cccc2nc3ccccc3nc12 classified in this test?
-- reply inactive

-- ask Then Cc1ccc(SCC(CF)OC(C)n2cnc3c(O)nc(N)nc32)cc1 (stereo not drawn) ?
-- reply inactive

-- ask Then Cc1ccc(S(=O)(=O)C2=c3ncccc3=C3C(=O)c4ccccc4C(=O)C32)cc1 (stereo not drawn) ?
-- reply inactive

-- ask Then COC(=O)[C@@H](Nc1ccccc1)[C@@]1(C(=O)OC)SC12c1ccccc1-c1ccccc12 ?
-- reply inactive

-- ask Then CN(NC(=O)c1ccc(Cl)cc1)C1=NCCCCN1 ?
-- reply inactive

-- ask Then CC(C)(/C=N\O)NO ?
-- reply inactive

-- ask Then CC(C)C(Br)C(=O)NCC(=O)O (stereo not drawn) ?
-- reply inactive

-- ask Then CCOC(=O)/C=C/C1OC(C)(C)OC1/C=C/C(=O)OCC (stereo not drawn) ?
-- reply inactive

-- ask Then CCN1CCN(c2nc3ccccc3nc2C(=O)c2ccc(OC)c(OC)c2)CC1 ?
-- reply inactive

-- ask Then Cc1cnc2nc(-c3ccc(Cl)cc3)cc(O)c2c1 ?
-- reply active

-- ask Then C/C=C(\C)C(=O)O[C@@H]1CC(C)(C)CC2C3=CCC4[C@]56CC[C@](O)(OC5)C(C)(C)C6CC[C@@]4(C)C3(C)CC[C@]21C(=O)O (stereo partly drawn) ?
-- reply inactive

-- ask Then c1ccc2c(CSCc3cccc4ccccc34)cccc2c1 ?
-- reply inactive

-- ask Then c1csc(-c2cc(-c3ccsc3)c(-c3ccsc3)s2)c1 ?
-- reply inactive

-- ask Then N#CSC#Cc1ccc(C#CSC#N)cc1 ?
-- reply inactive

-- ask Then CC1(C)CCCOc2cccc(c2)OCCCC(C)(C)C1=O ?
-- reply inactive

-- ask Then CCOC(=O)/C=C(/C(=O)OCC)n1cc(C)c(=O)n(Cc2cn(CCCCOC(C)=O)nn2)c1=O ?
-- reply inactive

-- ask Then O=[N+]([O-])c1ccccc1S(=O)(=O)c1ccccc1[N+](=O)[O-] ?
-- reply inactive

-- ask Then COc1ccc2c(NCCCCCCNc3c4ccccc4nc4cc(OC)ccc34)c3ccccc3nc2c1 ?
-- reply active
